- Tested on: Staphylococcus aureus
- Measurement Notes: Antibacterial activity against methicillin-resistant Staphylococcus aureus ATCC 33591 after 16 to 20 hrs by two fold serial dilution method
- Type: functional
Assay Endpoint: MIC (µg/mL)
Value expressed in µg/mL; do not type the unit.

Inquiry: Entry "NCCCC[C@@H](CN(CC(=O)NCc1cccc2ccccc12)C(=O)CCCN)NC(=O)c1ccc2ccccc2c1" has what MIC?
Reply text: 25

* * *

- Tested on: Staphylococcus aureus
- Measurement Notes: Antibacterial activity against methicillin-resistant Staphylococcus aureus ATCC 33591 after 16 to 20 hrs by two fold serial dilution method
- Format: functional
Assay Endpoint: MIC (µg/mL)
Value expressed in µg/mL; do not type the unit.

Inquiry: Entry "NCCCC[C@H](N)C(=O)N[C@@H](Cc1ccccc1)CN(CC(=O)NCc1cccc2ccccc12)C(=O)c1ccc2ccccc2c1" has what MIC?
Reply text: 25

Inquiry: Entry "NCCCC[C@H](NC(=O)[C@@H](N)CCCN)C(=O)N[C@@H](Cc1ccccc1)CN(CC(=O)NCC12CC3CC(CC(C3)C1)C2)C(=O)CC12CC3CC(CC(C3)C1)C2" has what MIC?
Reply text: 3.12

Inquiry: Entry "NCCCC[C@H](N)C(=O)N[C@@H](Cc1ccccc1)CN(CC(=O)NCc1cc(C(F)(F)F)cc(C(F)(F)F)c1)C(=O)CC12CC3CC(CC(C3)C1)C2" has what MIC?
Reply text: 3.12

Inquiry: Entry "NCCCC[C@H](N)C(=O)N[C@@H](Cc1ccccc1)CN(CC(=O)NCC12CC3CC(CC(C3)C1)C2)C(=O)CC12CC3CC(CC(C3)C1)C2" has what MIC?
Reply text: 1.56

Inquiry: Entry "NCCCC[C@H](N)C(=O)N[C@@H](Cc1ccccc1)CN(CC(=O)NCc1ccc(-c2ccccc2)cc1)C(=O)CC12CC3CC(CC(C3)C1)C2" has what MIC?
Reply text: 6.25
